Reference source: patent US20230118307A1

Task for the reader: assign each of the following binders its reported In vitro Activity Compared to Native Peptide (%) vs. Glucagon.
experimental-target: human GCG receptor (human, UniProt P47871 26-477)
Sequence (P47871 26-477): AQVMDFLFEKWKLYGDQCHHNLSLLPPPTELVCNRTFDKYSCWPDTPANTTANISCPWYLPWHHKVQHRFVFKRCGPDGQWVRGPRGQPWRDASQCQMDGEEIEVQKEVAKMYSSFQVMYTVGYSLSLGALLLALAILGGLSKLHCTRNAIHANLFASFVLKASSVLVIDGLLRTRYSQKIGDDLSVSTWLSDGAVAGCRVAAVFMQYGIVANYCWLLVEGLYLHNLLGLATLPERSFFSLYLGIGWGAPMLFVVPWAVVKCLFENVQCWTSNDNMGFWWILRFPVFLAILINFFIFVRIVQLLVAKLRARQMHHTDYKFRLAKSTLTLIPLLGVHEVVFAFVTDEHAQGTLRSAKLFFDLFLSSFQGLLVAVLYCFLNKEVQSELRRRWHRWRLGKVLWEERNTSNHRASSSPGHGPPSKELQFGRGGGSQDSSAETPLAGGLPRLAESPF
test-details: cell-based or functional assay
Positions of bridges follow the written chain, without caps; N, C: chain ends. Non-standard residues stand in square brackets, D forms with d. No end group written: not given here. Aib = CC(C)(N)C(=O)O
Give bare numbers, in %.

H[Aib]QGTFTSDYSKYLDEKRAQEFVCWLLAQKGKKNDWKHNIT [triple agonist of SEQ ID NO: 28] ... 1.6

--- query ---
Query Y[Aib]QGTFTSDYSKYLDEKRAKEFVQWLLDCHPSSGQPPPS (bridge 16-20) [triple agonist of SEQ ID NO: 97] yields In vitro Activity Compared to Native Peptide (%) vs. Glucagon of 62.8
